Values compiled from patent US8741806B2.

System: Sorghum bicolor (SORVU)
Test: Example A post-emergence herbicidal activity, glasshouse pot test
Assay type: in vivo
Conditions: Rate 15 g/ha, evaluated 15 days later, 100=total damage to plant, 0=no damage to plant
Protocol: Seeds of a variety of test species were sown in standard soil in pots. […] The test plants were then grown in a greenhouse under optimum conditions until, 15 days later for post-emergence and 20 days for pre-emergence, the test was evaluated (100=total damage to plant; 0=no damage to plant). […]
Give measured Post-Emergence Activity SORVU (damage to plant) for each item. Keep answers brief.

>>> observed_measurement("CCc1ccc(-c2ccc(Cl)cc2)cc1C1=C(O)CC(C)(C)CC1=O [Compound T3]")
70
>>> observed_measurement("CCc1ccc(-c2ccc(Cl)cc2)cc1C1=C(O)CCCC1=O [Compound T2]")
70
>>> observed_measurement("CCc1ccc(-c2ccc(Cl)cc2)cc1C1=C(O)C(C)(C)CCC1=O [Compound T1]")
50

API: the following record is the query input.
Fill: Post-Emergence Activity SORVU (damage to plant) (Sorghum bicolor (SORVU)) for this compound Cc1ccc(-c2ccc(Cl)cc2)cc1C1=C(O)C(C)(C)CCC1=O [Example 1-8-a-1 from WO99/48869, reference compound]
0

---

tested on: Alopecurus myosuroides (ALOMY); experiment: Example B pre-emergence herbicidal activity, glasshouse pot test; assay type: in vivo; conditions: 312 h, rate 250 g/ha, evaluated after 13 days, scale 0-100, read-out: Pre-emergence activity ALOMY (100=total damage to plant; 0=no damage to plant)
Experimental readout: pest or weed control at 250 g/ha (%)
Numbers only, in %.

>>> observed_measurement("CCc1ccc(-c2ccc(Cl)nc2)cc1C1=C(O)CC(C)(C)CC1=O")
0
>>> observed_measurement("CCc1ccc(-c2ccc(Cl)c(Cl)c2)cc1C1=C(O)C(C)(C)CCC1=O")
0
>>> observed_measurement("CCc1ccc(-c2ccc(Cl)cc2C)cc1C1=C(O)CC(C)(C)CC1=O")
0

Provide pest or weed control at 250 g/ha values for the following items, in order.
1. CCc1ccc(-c2ccc(Cl)c(OC)c2)cc1C1=C(O)C(C)(C)CCC1=O
2. CCc1ccc(-c2ccc(Cl)c(F)c2)cc1C1=C(O)C(C)(C)CCC1=O
3. CCc1ccc(-c2ccc(Cl)c(Cl)c2)cc1C1=C(O)CC(C)(C)CC1=O
4. CCc1ccc(-c2ccc(Cl)s2)cc1C1=C(O)CC(C)(C)CC1=O
5. CCc1ccc(-c2ccc(Cl)nc2Cl)cc1C1=C(O)C(C)(C)CCC1=O
6. CCc1ccc(-c2ccc(Cl)cc2F)cc1C1=C(O)C(C)(C)CC(C)(C)C1=O
7. CCc1ccc(-c2c(F)cc(Cl)cc2F)cc1C1=C(O)CC(C)(C)CC1=O

1. 0
2. 0
3. 20
4. 20
5. 0
6. 0
7. 20

The following compounds each have a reported value; give each one's pest or weed control at 250 g/ha.
1. CCc1ccc(-c2ccc(Cl)s2)cc1C1=C(O)CCCC1=O
2. CCc1ccc(-c2ccc(Cl)c(F)c2F)cc1C1=C(O)CCCC1=O

1: 20; 2: 40

The following compounds each have a reported value; give each one's pest or weed control at 250 g/ha.
1. CCc1ccc(-c2ccc(Cl)cc2Cl)cc1C1=C(O)C(C)(C)CCC1=O
2. CCc1ccc(-c2ccc(Cl)c(Cl)c2)cc1C1=C(O)C(C)(C)CC(C)(C)C1=O
3. CCc1ccc(-c2ccc(Cl)c(F)c2)cc1C1=C(O)CC(C)(C)CC1=O
4. CCc1ccc(-c2ccc(Cl)c(F)c2)cc1C1=C(O)C(C)(C)CC(C)(C)C1=O
5. CCc1ccc(-c2ccc(Cl)c(F)c2Cl)cc1C1C(=O)C(C)(C)CC(C)(C)C1=O
6. CCc1ccc(-c2ccc(Cl)c(OC)c2)cc1C1=C(O)C(C)(C)CC(C)(C)C1=O

1. 30
2. 10
3. 0
4. 30
5. 20
6. 10
